The reported measurements were obtained from ChEMBL document CHEMBL1909294.

test system: Hepatotoxicity;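 further: Jaundice-related hepatic side-effect score drawn from the training data of the DILIps (drug-induced liver injury prediction system)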; further: call rule not given here
Measurement Name: HepSE_jaundice
No unit in the answer, only the number.

Worked cases, answers included:
- Cc1c(-c2ccccc2)oc2c(C(=O)OCCN3CCCCC3)cccc2c1=O [FLAVOXATE]: 0
- CNNCc1ccc(C(=O)NC(C)C)cc1 [PROCARBAZINE]: 1
- O=C(NCC(O)CO)c1c(I)c(C(=O)NCC(O)CO)c(I)c(N(CCO)C(=O)CO)c1I (stereo not drawn) [IOVERSOL]: 0

Ask: May I ask what HepSE_jaundice has been recorded for CCN[C@H]1CN(CCCOC)S(=O)(=O)c2sc(S(N)(=O)=O)cc21 [BRINZOLAMIDE] ?
Reply: 0

Ask: If you can, please state the reported HepSE_jaundice value of CC[C@H](C)C(=O)O[C@H]1C[C@H](O)C=C2C=C[C@H](C)[C@H](CC[C@@H](O)C[C@@H](O)CC(=O)O)[C@H]21 [PRAVASTATIN] .
Reply: 1

Ask: Entry under review: CC(C)(N)Cc1ccccc1 [PHENTERMINE] . Reported HepSE_jaundice?
Reply: 0

Ask: Item under review: Cc1nc2ccc(CN(C)c3ccc(C(=O)N[C@@H](CCC(=O)O)C(=O)O)s3)cc2c(=O)[nH]1 [RALTITREXED] . Reported HepSE_jaundice?
Reply: 0

Ask: Which HepSE_jaundice value belongs to CC[C@]1(O)C[C@H]2CN(CCc3c([nH]c4ccccc34)[C@@](C(=O)OC)(c3cc4c(cc3OC)N(C=O)[C@H]3[C@@](O)(C(=O)OC)[C@H](OC(C)=O)[C@]5(CC)C=CCN6CC[C@]43[C@@H]65)C2)C1 [VINCRISTINE] ?
Reply: 0
